Test system: liver function in mice
Test: Evaluation of subacute toxicity (continuous administration, liver function)
Type: in vivo
Parameters: unit not given here
Conditions: serum; male ICR mice, 200 mg/kg intragastric once a day for 4 consecutive weeks
measuredMetric: AST

Solved entries:
molecule	measuredMetric	valueObserved
COc1ccc(/C=C/c2cc(OC)cc(OCCCC(C)(C)C(=O)O)c2)cc1 [Compound I-1b]	AST	161.6 ± 18.32
[2H]C([2H])([2H])Oc1ccc(/C=C/c2cc(OC)cc(OCCCC(C)(C)C(=O)O)c2)cc1 [Compound I-3b]	AST	138.32 ± 29.72
[2H]C([2H])([2H])Oc1ccc(/C=C/c2cc(OCCCC(C)(C)C(=O)O)cc(OC([2H])([2H])[2H])c2)cc1 [Compound I-2b]	AST	105.33 ± 16.85

As a next step, examine the molecule that follows.
Prompt line: Value lookup for AST; key = [2H]C([2H])([2H])Oc1cc(/C=C/c2ccc(OC)cc2)cc(OCCCC(C)(C)C(=O)O)c1 [Compound I-4b]
Response line: 72.73 ± 15.82

All values here come from patent US20220185764A1.
